Reference source: the supplement of paper PMC12855868

// reported scaled log2 fold change for each item listed
B1: library; numbered along this chain (parent)
chain: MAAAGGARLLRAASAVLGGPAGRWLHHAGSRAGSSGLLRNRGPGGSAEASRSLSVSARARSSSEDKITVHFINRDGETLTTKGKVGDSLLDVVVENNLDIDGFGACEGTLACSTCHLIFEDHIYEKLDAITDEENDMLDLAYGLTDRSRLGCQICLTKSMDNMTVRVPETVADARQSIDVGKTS

variants of: B1; assay: scaled log2 fold change in cell abundance, elesclomol vs control (0 = silent mean, 1 = nonsense mean) (scaled log2 ratio); higher = higher viability under elesclomol (loss of FDX1 cuproptosis function); conditions: with HEK293T FDX1 KO; elesclomol 40 nM; glucose 10 mM; 11 days;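 also: variant abundance is its share of total variant reads in each endpoint sample, from next-generation sequencing of the integrated ORF PCR-amplified out of genomic DNA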
Form field (numeric): enter value without unit.

# example entries with known answers
mutation-name	measured-endpoint	measured-number
P168A	scaled log2 fold change	-0.0417
G151W	scaled log2 fold change	1.38
S184G	scaled log2 fold change	-0.25
F71I	scaled log2 fold change	-0.554
P43C	scaled log2 fold change	0.841

Form field: reported scaled log2 fold change of E120N
0.835
